Test system: UACC-62 melanoma
Test: NCI-60 one-dose screen, 48 h (100 = growth as untreated, 0 = no growth, -100 = all killed)
Settings: 10 µM unless noted
The panel holds about 83,000 compounds, 20% with a hit somewhere; the sample as a whole holds those more often.
property measured: growth (%)

compound=Cc1cnc(-c2ccc(-c3ccc(NC(=O)Nc4c(F)cc(F)cc4F)cc3F)c3c2C(=O)NC3)[nH]1 property_measured=growth unit_abbreviation=% value_observed=0.806
compound=COc1ccc(/C=C(/C(=O)N2CCN(Cc3ccccc3)CC2)c2cc(OC)c(OC)c(OC)c2)cc1O property_measured=growth unit_abbreviation=% value_observed=45
compound=COc1ccc(Nc2nc(SCC(C)C)nc(-c3ccc(F)cc3)c2C#N)cc1 property_measured=growth unit_abbreviation=% value_observed=40.6
compound=O=C(Nc1nc2ccc(C(F)(F)F)cc2s1)c1cc(Cl)ccc1O property_measured=growth unit_abbreviation=% value_observed=13.3
compound=CCCCOc1nc2ccc(C)cc2cc1/C=C/C(=O)/C=C/c1ccc2c(c1)OCO2 property_measured=growth unit_abbreviation=% value_observed=75.6
compound=COc1ccc(-c2nnc(N3CCN(C(=O)CN4CCN(c5ccccc5)CC4)CC3)nc2-c2ccc(OC)cc2)cc1 property_measured=growth unit_abbreviation=% value_observed=52.1
compound=COCCOCCOCc1n(Cc2ccc3ccccc3n2)c2ccccc2[n+]1Cc1ccc2ccccc2n1 property_measured=growth unit_abbreviation=% value_observed=14.5
compound="O=C1CC23OC(C(O)c4ccccc4N12)C1C(c2ccccc2)=NOC13 (centres undefined)" property_measured=growth unit_abbreviation=% value_observed=28.2
compound=O=C(Nc1cc(Br)ccn1)c1cc2cc(Nc3nc(-c4ccccc4)nc4ccccc34)ccc2oc1=O property_measured=growth unit_abbreviation=% value_observed=103

These data points were gathered from PubChem BioAssay (NCI).
